- testDescription: Drug uptake in C57BL6/JRj mouse brain at 10 mg/kg, po administered as single dose and measured after 2 hrs by LS-MS analysis
- Assay type: ADME, organism-based
- conditionsUsed: read-out: Drug uptake
measurementName: concentration at 2 h

• CN(c1cc(C(F)(F)F)nc(OCCC(=O)O)n1)c1cccc2c1CCC2 = 275 ng/g

====

- testDescription: Half life in C57BL6/JRj mouse at 10 mg/kg, po administered as single dose and measured after 2 hrs by LS-MS analysis
- Assay type: ADME, organism-based
- conditionsUsed: in vivo
measurementName: half-life (h)

• CN(c1cc(C(F)(F)F)nc(OCCC(=O)O)n1)c1cccc2c1CCC2 = 4.2
